MEASUREMENT TARGET: human PrCP (Homo sapiens, UniProt P42785)
Construct: made in house
Sequence (P42785 46-496): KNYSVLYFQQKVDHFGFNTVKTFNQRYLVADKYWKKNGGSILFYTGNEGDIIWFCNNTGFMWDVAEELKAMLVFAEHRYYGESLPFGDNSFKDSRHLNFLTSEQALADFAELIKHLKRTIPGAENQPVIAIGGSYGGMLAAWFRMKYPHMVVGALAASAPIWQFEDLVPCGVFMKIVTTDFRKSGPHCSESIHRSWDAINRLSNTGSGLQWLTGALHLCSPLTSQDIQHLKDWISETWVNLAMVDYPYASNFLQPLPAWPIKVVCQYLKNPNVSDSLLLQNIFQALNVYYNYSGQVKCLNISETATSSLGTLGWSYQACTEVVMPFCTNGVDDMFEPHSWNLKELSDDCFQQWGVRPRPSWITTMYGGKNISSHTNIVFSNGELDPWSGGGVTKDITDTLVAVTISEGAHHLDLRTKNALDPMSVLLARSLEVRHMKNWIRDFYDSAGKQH
EXPERIMENTAL PROTOCOL: Prolylcarboxypeptidase (PRCP) enzyme activity assay, fluorescence intensity kinetic assay
Assay type: biochemical
CONDITION: recombinant human PrCP, cell line CHO; read-out: Human PRCP Enzyme Inhibition IC50
pIC50: −log10 of the molar value. Where a name gives a salt, the structure may show the parent alone.
Reported values of pIC50 for individual entries
METRIC: pIC50

* N#Cc1cccc(-c2cc([C@@H]3CCN(CCc4ccccc4)C[C@H]3c3ccc(F)cc3)n[nH]2)c1 (relative stereo) [Example 12] | 8.10
* Fc1ccc([C@@H]2CN(CCc3ccccc3)CC[C@H]2c2n[nH]c(-c3ccc(Cl)cc3)n2)cc1 (relative stereo) [Example 20, trifluoroacetate salt] | 7.29
* Fc1ccc(-c2cc([C@@H]3CCN(CCc4ccccc4)C[C@H]3c3ccc(F)cc3)n[nH]2)cc1 (relative stereo) [Example 11, trifluoroacetate salt] | 8.64

* * *

MEASUREMENT TARGET: human PrCP (Homo sapiens)
Construct: made in house
EXPERIMENTAL PROTOCOL: Prolylcarboxypeptidase (PRCP) enzyme activity assay, fluorescence intensity kinetic assay
Format: biochemical
CONDITION: recombinant human PrCP, cell line HEK; read-out: Human PRCP Enzyme Inhibition IC50
Structures can show the parent of a compound that is named as a salt.
METRIC: IC50

* CC(C)(C)N1C[C@@H](c2cc(-c3ccc(Cl)cc3)[nH]n2)[C@H](c2ccc(F)cc2F)C1 [Example 13, trifluoroacetate salt] | 413 nM
